# SYSTEM_TESTED: B.subtilis neutral protease mutant 189 (Gly 189 → Ala) (Bacillus subtilis, UniProt P68736, G406A)
# Construct: made in house; host or cells: B. subtilis SMS 108 carrying pSM 375 (printed pSM 75; B. subtilis SMS 261)
# EXPERIMENTAL_PROTOCOL: Kinetic parameters on synthetic peptide substrates (HPLC of hydrolysis products)
# Format: biochemical
# PARTICULARS: 189 mutant; 37° C., 25 mM Tris-HCl, pH 7.0, 2.5 mM calcium acetate
Residues, ends and D or L forms follow the SMILES beside them. *: point of attachment. Cbz = O=C(OCc1ccccc1)*
Reported Km values follow for various molecules

| MOLECULE | Km |
| --- | --- |
| CC(C)C[C@H](NC(=O)[C@H](C)NC(=O)OCc1ccccc1)C(=O)N[C@@H](C)C(=O)O [Z--Ala--Leu--Ala, Z-Ala-Leu-Ala] (Cbz-Ala-Leu-Ala-OH) | 1530 µM |
| CC(C)C[C@H](NC(=O)[C@H](Cc1ccccc1)NC(=O)OCc1ccccc1)C(=O)N[C@@H](C)C(=O)O [Z--Phe--Leu--Ala, Z-Phe-Leu-Ala] (Cbz-Phe-Leu-Ala-OH) | 2530 µM |
| CC(C)C[C@H](NC(=O)[C@@H](NC(=O)OCc1ccccc1)C(C)C)C(=O)N[C@@H](C)C(=O)O [Z--Val--Leu--Ala, Z-Val-Leu-Ala] (Cbz-Val-Leu-Ala-OH) | 960 µM |
| CC(C)C[C@H](NC(=O)CNC(=O)OCc1ccccc1)C(=O)N[C@@H](C)C(=O)O [Z--Gly--Leu--Ala, Z-Gly-Leu-Ala] (Cbz-Gly-Leu-Ala-OH) | 2380 µM |

The values you see were collected from patent US5252478A.
